Data credit: patent EP3485874A1

# assay_remarks: Solubility of the active ingredient in comparable solvents (polar to nonpolar)
# Type: physicochemical
# particulars: water; 25°C and 1atm; read-out: Water solubility

{"columns": ["compound", "unit_abbrev", "solubility"],
 "data": [
  ["O=C(O)c1ccccc1Nc1cccc(C(F)(F)F)c1 [Flufenamic acid]", "µg/mL", 9]
]}

====

# assay_remarks: Solubility of the active ingredient in NADES
# Format: physicochemical
# particulars: organic solvent or mixture, thermodynamic from solid; Sorbitol: Urea (1:1), pH 8.3, polar NADES

{"columns": ["compound", "solubility"],
 "data": [
  ["O=C(O)c1ccccc1Nc1cccc(C(F)(F)F)c1 [Flufenamic acid]", "< 1000 µg/mL"]
]}

====

# assay_remarks: pKa of the active ingredient
# Format: physicochemical
# particulars: read-out: pKa
# Source text: Further, the analysis also at least involves determination of acidity/basicity of the compound by determining the pKa value by standard methods. In the case of previously analyzed compounds such information typically available in published literature.

{"columns": ["compound", "pKa"],
 "data": [
  ["O=C(O)c1ccccc1Nc1cccc(C(F)(F)F)c1 [Flufenamic acid]", 3.65],
  ["CC(=O)O[C@H]1C(=O)[C@@]2(C)[C@H]([C@H](OC(=O)c3ccccc3)[C@]3(O)C[C@H](OC(=O)[C@H](O)[C@@H](NC(=O)c4ccccc4)c4ccccc4)C(C)=C1C3(C)C)[C@]1(OC(C)=O)CO[C@@H]1C[C@@H]2O [Paclitaxel]", 11.9]
]}

====

# assay_remarks: Solubility of the active ingredient in NADES
# Format: physicochemical
# particulars: NADES, organic solvent or mixture, thermodynamic from solid; Choline Chloride: Propylene Glycol (1:3), pH 6.71
# Protocol: Subsequently, selected constituents are weighed out in the appropriate molar ratios and corresponding masses and are added to a suitable receptacle, such as a small bottle or other small vessel. In the receptacle generally a stirring element is added, such as a stirring flea. If two or more solid constituents are present, these are generally heated, for instance to about 70°C. […] Once cooled, the pH of the system is measured. […]
Reported solubility values follow for various molecules
parameter_measured: solubility (mg/mL)

{"columns": ["molecule", "unit_abbrev", "number"],
 "data": [
  ["O=C(O)c1ccccc1Nc1cccc(C(F)(F)F)c1 [Flufenamic acid]", "mg/mL", 28],
  ["CC(=O)O[C@H]1C(=O)[C@@]2(C)[C@H]([C@H](OC(=O)c3ccccc3)[C@]3(O)C[C@H](OC(=O)[C@H](O)[C@@H](NC(=O)c4ccccc4)c4ccccc4)C(C)=C1C3(C)C)[C@]1(OC(C)=O)CO[C@@H]1C[C@@H]2O [Paclitaxel]", "mg/mL", 30]
]}

====

# assay_remarks: Solubility of the active ingredient in comparable solvents (polar to nonpolar)
# Type: physicochemical
# particulars: ethanol, 25 °C, organic solvent or mixture; read-out: solubility in ethanol

{"columns": ["compound", "solubility"],
 "data": [
  ["O=C(O)c1ccccc1Nc1cccc(C(F)(F)F)c1 [Flufenamic acid]", "> 50 mg/mL"]
]}

====

# assay_remarks: Solubility of the active ingredient in NADES
# Format: physicochemical
# particulars: organic solvent or mixture, thermodynamic from solid; Choline chloride: glucose: butylene glycol (2:1:1), polar NADES

{"columns": ["smiles_input", "solubility"],
 "data": [
  ["O=C(O)c1ccccc1Nc1cccc(C(F)(F)F)c1", "< 1 mg/mL"]
]}

====

# assay_remarks: Solubility of the active ingredient in NADES
# Format: physicochemical
# particulars: aqueous with cosolvent or surfactant or cyclodextrin, thermodynamic from solid; Malic acid: Beta alanine: Water (1:1:2), pH 3.43, acidic NADES
parameter_measured: solubility

{"columns": ["compound", "parameter_measured", "result"],
 "data": [
  ["CC(=O)O[C@H]1C(=O)[C@@]2(C)[C@H]([C@H](OC(=O)c3ccccc3)[C@]3(O)C[C@H](OC(=O)[C@H](O)[C@@H](NC(=O)c4ccccc4)c4ccccc4)C(C)=C1C3(C)C)[C@]1(OC(C)=O)CO[C@@H]1C[C@@H]2O [Paclitaxel]", "solubility", "< 1000 µg/mL"]
]}

====

# assay_remarks: Solubility of the active ingredient in NADES
# Type: physicochemical
# particulars: pH 9.8, aqueous with cosolvent or surfactant or cyclodextrin, thermodynamic from solid; Choline Chloride: Urea: Water (1:1:2), pH 9.80, polar NADES
parameter_measured: solubility

{"columns": ["smiles_input", "parameter_measured", "result"],
 "data": [
  ["CC(=O)O[C@H]1C(=O)[C@@]2(C)[C@H]([C@H](OC(=O)c3ccccc3)[C@]3(O)C[C@H](OC(=O)[C@H](O)[C@@H](NC(=O)c4ccccc4)c4ccccc4)C(C)=C1C3(C)C)[C@]1(OC(C)=O)CO[C@@H]1C[C@@H]2O", "solubility", "< 1000 µg/mL"]
]}

====

# assay_remarks: Solubility of the active ingredient in comparable solvents (polar to nonpolar)
# Type: physicochemical
# particulars: caster oil, 25 °C, oil or lipid; read-out: approximate solubility in caster oil
parameter_measured: solubility

{"columns": ["smiles_input", "parameter_measured", "result"],
 "data": [
  ["CC(=O)O[C@H]1C(=O)[C@@]2(C)[C@H]([C@H](OC(=O)c3ccccc3)[C@]3(O)C[C@H](OC(=O)[C@H](O)[C@@H](NC(=O)c4ccccc4)c4ccccc4)C(C)=C1C3(C)C)[C@]1(OC(C)=O)CO[C@@H]1C[C@@H]2O", "solubility", "15 to 20 mg/mL"]
]}

====

# assay_remarks: Solubility of the active ingredient in NADES
# Type: physicochemical
# particulars: organic solvent or mixture, thermodynamic from solid; Acetamide: Propylene Glycol (1:3), pH 6.89, basic NADES
parameter_measured: solubility (mg/mL)

{"columns": ["compound", "unit_abbrev", "number"],
 "data": [
  ["O=C(O)c1ccccc1Nc1cccc(C(F)(F)F)c1 [Flufenamic acid]", "mg/mL", 50]
]}

====

# assay_remarks: Solubility of the active ingredient in NADES
# Assay type: physicochemical
# particulars: aqueous with cosolvent or surfactant or cyclodextrin, thermodynamic from solid; Choline chloride: Lactic acid: water (2:1:2), pH 2.19, polar NADES
parameter_measured: solubility

{"columns": ["smiles_input", "parameter_measured", "result"],
 "data": [
  ["O=C(O)c1ccccc1Nc1cccc(C(F)(F)F)c1", "solubility", "< 1000 µg/mL"]
]}
